biological target: Vascular endothelial growth factor receptor 2 (Homo sapiens); experiment: Inhibition of human VEGFR2
MEASUREMENT NAME: IC50 (nM)
Response body: numeric value in nM, unit text excluded.

The compound listed as `O=C(c1ccccc1)n1cc(-c2nc3cc(Cl)ccc3[nH]c2=O)c(=O)[nH]1` shows IC50 equal to 144

* * *

target: UniProt P35968; assay: Inhibition of human recombinant VEGFR2
MEASUREMENT NAME: IC50 (nM)
Provide the reading as a plain figure in nM.

Response field IC50 (UniProt P35968) for item `Cc1[nH]c2ncnc(Nc3ccc(NC(=O)Nc4cccc(C(F)(F)F)c4)c(F)c3)c2c1C` : 52.4

* * *

test system: DU-145; assay: Cytotoxicity against human DU-145 cells assessed as reduction in cell viability incubated for 72 hrs by MTT assay; format: functional, cell-based; details: DU-145, 72 h
MEASUREMENT NAME: IC50
Give the value; after it, write the unit.

The recorded IC50 for `COc1cc(-c2cc(-c3ccc4ccccc4c3)nc(NN)c2C#N)ccc1O` is 8.5 nM

* * *

system: PC-3; assay: Cytotoxicity against human PC-3 cells assessed as inhibition of cell growth incubated for 48 hrs by MTT assay; assay type: functional, cell-based; conditions: PC-3, 48 h
Recorded pIC50 for the following compounds
Conceptually, pIC50 converts a concentration in mol/L into minus its log10.

SMILES REPR	STUDY SYSTEM	pIC50
N=c1cc(N)nc2sc(NC(=O)c3cccs3)nn12	PC-3	5.11

Reported pIC50 ( `O=C(NC1=NN2C(=O)/C(=C/c3ccco3)N=C2S1)c1cccs1` ) = 5.10

* * *

tested on: MCF7; experiment: Antiproliferative activity against human MCF7 cells assessed as reduction in cell growth by MTT assay; format: functional, cell-based
MEASUREMENT NAME: IC50 (µM)
Field format: number, assumed µM, no unit text.

For reference, reported IC50 for `O=C(N/N=C/c1ccc(Cl)cc1)c1ccc(Nc2ncnc3sc4c(c23)CCCC4)cc1` stands at 10.3

* * *

target: UniProt P17948
Sequence (P17948 whole entry): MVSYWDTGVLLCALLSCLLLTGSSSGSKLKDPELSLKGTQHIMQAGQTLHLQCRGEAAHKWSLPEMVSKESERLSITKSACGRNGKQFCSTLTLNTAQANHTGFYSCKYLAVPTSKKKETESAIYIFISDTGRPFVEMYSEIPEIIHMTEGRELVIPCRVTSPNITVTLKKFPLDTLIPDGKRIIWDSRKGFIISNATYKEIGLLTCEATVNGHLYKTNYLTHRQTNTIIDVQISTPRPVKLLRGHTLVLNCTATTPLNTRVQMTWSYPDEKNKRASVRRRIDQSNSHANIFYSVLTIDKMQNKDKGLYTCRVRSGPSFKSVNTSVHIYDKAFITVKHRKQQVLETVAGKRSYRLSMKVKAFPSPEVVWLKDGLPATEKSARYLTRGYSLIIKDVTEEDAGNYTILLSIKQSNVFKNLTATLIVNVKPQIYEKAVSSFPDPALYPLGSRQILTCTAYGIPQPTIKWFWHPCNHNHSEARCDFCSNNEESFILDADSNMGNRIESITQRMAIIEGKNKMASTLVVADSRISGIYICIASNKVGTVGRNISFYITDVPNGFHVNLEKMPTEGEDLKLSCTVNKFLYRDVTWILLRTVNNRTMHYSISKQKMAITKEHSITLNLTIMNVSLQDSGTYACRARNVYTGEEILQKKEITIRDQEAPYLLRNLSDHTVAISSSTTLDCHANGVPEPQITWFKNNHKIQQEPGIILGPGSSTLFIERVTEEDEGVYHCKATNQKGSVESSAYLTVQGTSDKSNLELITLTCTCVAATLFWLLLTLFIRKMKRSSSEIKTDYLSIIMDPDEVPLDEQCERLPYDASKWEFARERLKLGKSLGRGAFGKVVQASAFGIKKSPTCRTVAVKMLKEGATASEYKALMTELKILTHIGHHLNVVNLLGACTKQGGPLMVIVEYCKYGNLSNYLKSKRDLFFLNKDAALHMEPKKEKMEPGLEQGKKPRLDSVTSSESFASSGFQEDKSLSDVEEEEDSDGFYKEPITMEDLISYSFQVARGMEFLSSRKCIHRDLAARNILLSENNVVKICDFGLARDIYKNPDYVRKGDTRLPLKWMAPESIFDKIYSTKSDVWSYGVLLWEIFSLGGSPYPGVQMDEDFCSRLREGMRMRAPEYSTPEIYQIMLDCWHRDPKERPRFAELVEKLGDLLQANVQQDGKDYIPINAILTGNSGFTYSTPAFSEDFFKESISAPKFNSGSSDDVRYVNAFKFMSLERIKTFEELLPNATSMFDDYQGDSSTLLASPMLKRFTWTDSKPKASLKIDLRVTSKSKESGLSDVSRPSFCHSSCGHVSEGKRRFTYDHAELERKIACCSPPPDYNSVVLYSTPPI
MEASUREMENT NAME: pIC50
By convention, pIC50 is the negative base-10 log of a molar concentration.

SMILES REPR	QUANTITATIVE RESULT
Cc1c2ccc(Nc3ccnc(Nc4ccc(OCCCCCCC(=O)NO)cc4)n3)cc2nn1C	7.39

I looked up `Cc1c2ccc(Nc3ccnc(Nc4ccc(NC(=O)CCCCCCC(=O)NO)cc4)n3)cc2nn1C` and its pIC50 for UniProt P17948 was 7.74

* * *

target: Histone deacetylase 1 (Homo sapiens)
Sequence (Q13547 whole entry): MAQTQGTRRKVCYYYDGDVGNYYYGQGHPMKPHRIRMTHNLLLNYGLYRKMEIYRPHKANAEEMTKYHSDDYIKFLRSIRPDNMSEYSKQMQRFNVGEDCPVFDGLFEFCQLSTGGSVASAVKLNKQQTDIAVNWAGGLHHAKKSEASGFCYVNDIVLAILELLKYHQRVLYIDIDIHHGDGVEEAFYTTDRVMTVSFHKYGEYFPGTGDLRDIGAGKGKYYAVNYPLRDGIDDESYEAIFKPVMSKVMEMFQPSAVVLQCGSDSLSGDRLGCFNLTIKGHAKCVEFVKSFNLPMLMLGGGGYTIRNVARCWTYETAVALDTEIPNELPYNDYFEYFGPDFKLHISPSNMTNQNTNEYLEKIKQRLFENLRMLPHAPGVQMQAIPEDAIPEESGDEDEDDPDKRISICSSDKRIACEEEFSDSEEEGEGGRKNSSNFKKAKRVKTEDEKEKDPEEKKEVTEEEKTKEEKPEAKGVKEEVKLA
MEASUREMENT NAME: pIC50
In textbook form, pIC50 equals minus log to base ten of the concentration in mol/L.

Note to self: pIC50 of `Cc1c2ccc(Nc3ccnc(Nc4ccc(NC(=O)CCCCCCC(=O)NO)cc4)n3)cc2nn1C` with Histone deacetylase 1 (Homo sapiens) was 6.92

* * *

biological target: Vascular endothelial growth factor receptor 2 (Homo sapiens, UniProt P35968); test: Inhibition of VEGFR2 (unknown origin) incubated for 1 hr in presence of ATP by ELISA method
Sequence (P35968 whole entry): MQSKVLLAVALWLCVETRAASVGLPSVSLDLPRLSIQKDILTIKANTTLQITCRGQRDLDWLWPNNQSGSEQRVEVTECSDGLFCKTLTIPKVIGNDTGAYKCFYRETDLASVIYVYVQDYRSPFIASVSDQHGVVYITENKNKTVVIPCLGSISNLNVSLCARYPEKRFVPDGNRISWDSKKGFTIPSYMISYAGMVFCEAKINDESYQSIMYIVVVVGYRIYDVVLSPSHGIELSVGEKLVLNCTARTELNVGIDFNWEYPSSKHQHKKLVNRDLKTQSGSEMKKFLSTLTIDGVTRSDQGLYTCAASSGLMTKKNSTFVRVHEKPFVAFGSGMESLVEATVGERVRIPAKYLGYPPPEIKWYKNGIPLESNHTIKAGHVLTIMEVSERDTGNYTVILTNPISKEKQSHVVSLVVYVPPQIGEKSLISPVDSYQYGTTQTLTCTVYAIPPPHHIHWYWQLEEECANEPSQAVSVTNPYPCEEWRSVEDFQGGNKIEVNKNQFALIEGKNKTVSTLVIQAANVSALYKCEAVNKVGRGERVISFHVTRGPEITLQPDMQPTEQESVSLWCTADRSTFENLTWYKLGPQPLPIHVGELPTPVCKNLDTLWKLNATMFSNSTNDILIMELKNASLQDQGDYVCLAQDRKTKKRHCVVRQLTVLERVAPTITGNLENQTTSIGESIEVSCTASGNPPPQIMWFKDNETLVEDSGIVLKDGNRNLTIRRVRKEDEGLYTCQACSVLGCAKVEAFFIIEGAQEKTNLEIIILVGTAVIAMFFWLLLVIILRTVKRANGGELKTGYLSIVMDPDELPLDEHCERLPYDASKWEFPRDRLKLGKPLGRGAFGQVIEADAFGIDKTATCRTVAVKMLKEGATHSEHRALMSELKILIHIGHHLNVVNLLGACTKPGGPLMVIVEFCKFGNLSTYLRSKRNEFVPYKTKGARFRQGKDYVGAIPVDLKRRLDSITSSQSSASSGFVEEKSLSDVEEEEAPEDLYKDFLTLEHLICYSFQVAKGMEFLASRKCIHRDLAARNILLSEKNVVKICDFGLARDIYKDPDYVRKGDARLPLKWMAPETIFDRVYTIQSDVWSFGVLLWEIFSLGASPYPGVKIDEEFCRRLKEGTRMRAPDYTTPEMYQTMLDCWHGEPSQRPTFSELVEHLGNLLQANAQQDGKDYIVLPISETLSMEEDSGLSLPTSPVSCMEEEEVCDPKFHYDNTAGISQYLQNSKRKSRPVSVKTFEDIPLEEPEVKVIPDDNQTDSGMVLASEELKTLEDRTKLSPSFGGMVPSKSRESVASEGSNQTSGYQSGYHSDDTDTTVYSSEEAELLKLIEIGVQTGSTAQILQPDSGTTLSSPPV
Below, each of the compounds is paired with its reported IC50 value.
Express it in µM; write the number only.

In the examples that follow, each entry is paired with its recorded IC50.
SMILES REPR	IC50 (µM)
CNC(=O)c1nc(Nc2ccc(NC(=O)Nc3cccc(OC)c3)cc2)c2ccccc2n1	40.3
COc1cc(-c2nc(SCC(=O)Nc3ccc(C(C)=O)cc3)[nH]c(=O)c2C#N)cc(OC)c1OC	199

Next:
Looking up `CNC(=O)c1nc(Nc2ccc(NC(=O)Nc3cccc(C)c3)cc2)c2ccccc2n1` , I found its IC50 recorded as 0.0121

Reference source for all entries: ChEMBL document CHEMBL5500383
